- Tested on: Jurkat cells
- PROTOCOL_NOTES: Inhibition of proliferation of Jurkat cells (CellTiter-Glo, 72 hour)
- Assay type: cell-based, human
- TEST_CONTEXT: Homo sapiens, 10 μM to 316 pM
pIC50: −log10 of the molar value.
Listed here: items and their measured pIC50.

Exam item: # get_value(readout='pIC50', item= `NCCc1cc2ccc(Nc3ncc(Cl)c(-c4c[nH]c5ccccc45)n3)cc2[nH]1` )
Marked response: 5.30 to 6.30

Further cases:
Exam item: # get_value(readout='pIC50', item= `O=C(/C=C/CN1CCOCC1)N1CCC(C(=O)N2CC[C@H](Nc3ncc(Cl)c(-c4c[nH]c5ccccc45)n3)C2)CC1` )
Marked response: < 5.30

Exam item: Same thing, different compound: `CN(C)C/C=C/C(=O)N1CCC[C@H](C(=O)Nc2cccc(Nc3ncc(Cl)c(-c4c[nH]c5ccccc45)n3)c2)C1`
Marked response: 5.30 to 6.30

Exam item: Same thing, different compound: `CN(C)C/C=C/C(=O)Nc1ccc(C(=O)Nc2cccc(Nc3ncc(Cl)c(-c4c[nH]c5ccccc45)n3)c2)nc1`
Marked response: 5.30 to 6.30

Exam item: Same thing, different compound: `C=CC(=O)N1CCC[C@@H](C(=O)N[C@H]2CCC[C@@H](Nc3ncc(Cl)c(-c4c[nH]c5ccccc45)n3)C2)C1`
Marked response: > 6.30

Exam item: Same thing, different compound: `CN(C)C/C=C/C(=O)NCC(F)(F)C(=O)N[C@H]1CCC[C@@H](Nc2ncc(Cl)c(-c3c[nH]c4ccccc34)n2)C1`
Marked response: > 6.30

Exam item: Same thing, different compound: `C=CC(=O)N1CCC(C(=O)N[C@H]2CCC[C@@H](Nc3ncc(Cl)c(-c4c[nH]c5ccccc45)n3)C2)CC1`
Marked response: > 6.30

Exam item: Same thing, different compound: `O=C(Nc1cccc(Nc2ncc(Cl)c(-c3c[nH]c4ccccc34)n2)c1)[C@H]1CCCNC1`
Marked response: 5.30 to 6.30

Exam item: Same thing, different compound: `C=CC(=O)N1CCN(C[C@@H]2CCC[C@H](Nc3ncc(Cl)c(-c4c[nH]c5ccccc45)n3)C2)CC1`
Marked response: > 6.30

Exam item: Same thing, different compound: `C=CC(=O)N1CC(N(C)[C@H]2CCC[C@@H](Nc3ncc(Cl)c(-c4c[nH]c5ccccc45)n3)C2)C1`
Marked response: < 5.30

Exam item: Same thing, different compound: `Nc1ccc(C(=O)N[C@H]2CCC[C@@H](Nc3ncc(Cl)c(-c4c[nH]c5ccccc45)n3)C2)nn1`
Marked response: 5.30 to 6.30

Exam item: Same thing, different compound: `C=CC(=O)N1CCC(C(=O)N2CC[C@H](Nc3ncc(Cl)c(-c4c[nH]c5ccccc45)n3)C2)CC1`
Marked response: 5.30 to 6.30

Exam item: Same thing, different compound: `CN(C)C/C=C/C(=O)N1CCC(C(=O)N2CC[C@@H](Nc3ncc(Cl)c(-c4c[nH]c5ccccc45)n3)C2)CC1`
Marked response: < 5.30

Exam item: Same thing, different compound: C=CC(=O)N1CCCC(CN(C(=O)C=C)C2CCC(Nc3ncc(Cl)c(-c4c[nH]c5ccccc45)n3)CC2)C1 (stereo not drawn)
Marked response: > 6.30

Exam item: Same thing, different compound: `CN(C)C/C=C/C(=O)Nc1ccc(C(=O)N[C@H]2CCC[C@@H](Nc3ncc(C#N)c(-c4c[nH]c5ccccc45)n3)C2)nc1`
Marked response: > 6.30

Exam item: Same thing, different compound: C=CC(=O)N1CCCC(CNC2CCC(Nc3ncc(Cl)c(-c4c[nH]c5ccccc45)n3)CC2)C1 (stereo not drawn)
Marked response: 5.30 to 6.30

Exam item: Same thing, different compound: `O=C(Nc1cccc(Nc2ncc(Cl)c(-c3c[nH]c4ccccc34)n2)c1)[C@@H]1CCCNC1`
Marked response: 5.30 to 6.30

Exam item: Same thing, different compound: `Nc1nc(C(=O)N[C@H]2CCC[C@@H](Nc3ncc(Cl)c(-c4c[nH]c5ccccc45)n3)C2)cs1`
Marked response: 5.30 to 6.30

Exam item: Same thing, different compound: C=CC(=O)NC12CC(C(=O)N[C@H]3CCC[C@@H](Nc4ncc(Cl)c(-c5c[nH]c6ccccc56)n4)C3)(C1)C2 (racemic)
Marked response: > 6.30

Exam item: Same thing, different compound: `CN(C)C/C=C/C(=O)N[C@H]1CC[C@@H](C(=O)Nc2cccc(Nc3ncc(Cl)c(-c4c[nH]c5ccccc45)n3)c2)CC1`
Marked response: < 5.30

###

- TARGET_ENTITY: CDK7/Cyclin H/MAT1 trimeric complex (Homo sapiens)
- PROTOCOL_NOTES: CDK7 kinase assay, Caliper/LabChip EZ Reader (Biortus Biosciences)
- Format: biochemical
- TEST_CONTEXT: CDK7/Cyclin H/MAT1 10 nM, ATP 2 mM, FAM-CDK7tide 2 μM, 30 min incubation, read-out: CDK7 Inhibition (IC50)
pIC50: −log10 of the molar value.
MEASURED_PARAMETER: pIC50

Exam item: Item: `CN(C)C/C=C/C(=O)Nc1ccc(CN[C@@]2(C)CCC[C@@H](Nc3ncc(Cl)c(-c4c[nH]c5ccccc45)n3)C2)nc1` Test system: CDK7/Cyclin H/MAT1 trimeric complex (Homo sapiens) Read-out: pIC50 Value: ?
Marked response: > 7.00

Further cases:
Exam item: Item: `CN(C)C/C=C/C(=O)Nc1cnc(C(=O)N[C@H]2CCC[C@@H](Nc3ncc(Cl)c(-c4c[nH]c5ccccc45)n3)C2)nc1` Test system: CDK7/Cyclin H/MAT1 trimeric complex (Homo sapiens) Read-out: pIC50 Value: ?
Marked response: > 7.00

Exam item: Same thing, different compound: C=CC(=O)N1CCN(C2CCCC(Nc3ncc(Cl)c(-c4c[nH]c5ccccc45)n3)C2)C(C)C1 (stereo not drawn) [Compound 260]
Marked response: > 7.00

###

Listed here: items and their measured pIC50.
- Tested on: Jurkat cells
- PROTOCOL_NOTES: Inhibition of proliferation of Jurkat cells (CellTiter-Glo, 72 hour)
- Format: cell-based, human
- TEST_CONTEXT: Homo sapiens, 10 μM to 316 pM
pIC50: −log10 of the molar value.

Field: example entries. Status: answers known.
Exam item: # get_value(readout='pIC50', item= C=CC(=O)N1CCC(CN[C@H]2CCC[C@@H](Nc3ncc(Cl)c(-c4c[nH]c5ccccc45)n3)C2)CC1 [Compound 124] )
Marked response: < 5.30

Exam item: Same thing, different molecule: CN(C)C/C=C/C(=O)N[C@H]1CC[C@H](C(=O)Nc2cccc(Nc3ncc(Cl)c(-c4c[nH]c5ccccc45)n3)c2)CC1 [Compound 102]
Marked response: 5.30 to 6.30

Exam item: Same thing, different molecule: Nc1ccc(C(=O)N[C@H]2CCC[C@@H](Nc3ncc(Cl)c(-c4c[nH]c5ccccc45)n3)C2)cn1 [Compound 1025]
Marked response: 5.30 to 6.30

Further cases:
Exam item: # get_value(readout='pIC50', item= C=CC(=O)N1CCC(CN(C)[C@H]2CCC[C@@H](Nc3ncc(Cl)c(-c4c[nH]c5ccccc45)n3)C2)CC1 [Compound 167] )
Marked response: > 6.30

Exam item: Same thing, different molecule: C=CC(=O)N1CCC(NC[C@@H]2CCC[C@H](Nc3ncc(Cl)c(-c4c[nH]c5ccccc45)n3)C2)CC1 [Compound 212]
Marked response: < 5.30

Exam item: Same thing, different molecule: CN(C)C/C=C/C(=O)Nc1cnn(CC2(O)CCC(Nc3ncc(Cl)c(-c4c[nH]c5ccccc45)n3)CC2)c1 (stereo not shown) [Compound 114]
Marked response: < 5.30

Exam item: Same thing, different molecule: C=CC(=O)N[C@H]1CCC[C@@H](Nc2ncc(Cl)c(-c3c[nH]c4ccccc34)n2)C1 [Compound 170]
Marked response: 5.30 to 6.30

###

Observed IC50 values for CDK7 (Homo sapiens, UniProt P50613) are listed in what follows.

Exam item: # get_value(readout='IC50', item= O=C(Nc1cccc(Nc2ncc(Cl)c(-c3c[nH]c4ccccc34)n2)c1)[C@@H]1CCCNC1 [Compound 1004] )
Marked response: < 100 nM

Exam item: Same thing, different molecule: CN(C)CC=CC(=O)N1CCN(C2CCCC(Nc3ncc(Cl)c(-c4c[nH]c5ccccc45)n3)C2)CC1 (stereo not shown) [Compound 237]
Marked response: < 100 nM

Exam item: Same thing, different molecule: CN(C)CC=CC(=O)N1CCC(CNC2CCC(Nc3ncc(Cl)c(-c4c[nH]c5ccccc45)n3)CC2)CC1 (stereo not shown) [compound 197]
Marked response: < 100 nM

Exam item: Same thing, different molecule: C=CC(=O)N1CCC(C(=O)N2CC[C@H](Nc3ncc(Cl)c(-c4c[nH]c5ccccc45)n3)C2)CC1 [Compound 210]
Marked response: 100 to 1000 nM

###

Listed here: items and their measured pIC50.
- TARGET_ENTITY: CDK7/Cyclin H/MAT1 trimeric complex (Homo sapiens, UniProt P50613)
- Sequence (P50613 whole entry): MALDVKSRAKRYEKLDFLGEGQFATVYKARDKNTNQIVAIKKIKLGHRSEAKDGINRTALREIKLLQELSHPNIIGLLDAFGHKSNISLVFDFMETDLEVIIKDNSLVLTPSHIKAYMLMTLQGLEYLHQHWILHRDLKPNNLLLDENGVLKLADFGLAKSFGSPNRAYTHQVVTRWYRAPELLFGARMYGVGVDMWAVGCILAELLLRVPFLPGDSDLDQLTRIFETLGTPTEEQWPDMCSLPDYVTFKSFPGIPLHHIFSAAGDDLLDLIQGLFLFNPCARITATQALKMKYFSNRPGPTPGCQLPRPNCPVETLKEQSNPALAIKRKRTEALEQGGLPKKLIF
- Sequence (P51946 whole entry partner): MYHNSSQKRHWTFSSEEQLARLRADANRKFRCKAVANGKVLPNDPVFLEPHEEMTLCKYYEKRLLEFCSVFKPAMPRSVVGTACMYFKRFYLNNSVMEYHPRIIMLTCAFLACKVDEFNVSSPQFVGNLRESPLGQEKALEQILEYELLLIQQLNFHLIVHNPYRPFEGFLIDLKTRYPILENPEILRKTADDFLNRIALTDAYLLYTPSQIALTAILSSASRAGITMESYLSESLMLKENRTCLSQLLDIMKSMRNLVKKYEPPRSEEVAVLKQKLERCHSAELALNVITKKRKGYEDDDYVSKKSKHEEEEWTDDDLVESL
- Sequence (P51948 whole entry partner): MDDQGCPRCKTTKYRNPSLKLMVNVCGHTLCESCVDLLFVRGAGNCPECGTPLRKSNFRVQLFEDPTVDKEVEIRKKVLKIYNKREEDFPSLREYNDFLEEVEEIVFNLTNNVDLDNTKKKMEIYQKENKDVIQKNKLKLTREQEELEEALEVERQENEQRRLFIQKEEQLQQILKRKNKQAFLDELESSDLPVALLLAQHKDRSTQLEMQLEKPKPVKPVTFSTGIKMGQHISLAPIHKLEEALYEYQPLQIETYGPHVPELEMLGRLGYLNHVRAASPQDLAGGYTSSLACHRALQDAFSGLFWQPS
- PROTOCOL_NOTES: CDK7 kinase assay, Caliper/LabChip EZ Reader (Biortus Biosciences)
- TEST_CONTEXT: CDK7/Cyclin H/MAT1 10 nM, ATP 2 mM, FAM-CDK7tide 2 μM, 30 min incubation, read-out: CDK7 Inhibition (IC50)
pIC50: −log10 of the molar value.

Exam item: # get_value(readout='pIC50', item= CN(C)C/C=C/C(=O)N1CCN([C@H]2CCC[C@@H](Nc3ncc(Cl)c(-c4cnc5ccccn45)n3)C2)CC1 [compound 400] )
Marked response: > 7.00

Exam item: Same thing, different compound: C=C(F)C(=O)N1CCN([C@H]2CCC[C@@H](Nc3ncc(Cl)c(-c4c[nH]c5ccccc45)n3)C2)CC1 [compound 401]
Marked response: > 7.00

Exam item: Same thing, different compound: CN(C)C/C=C/C(=O)N1CC(F)(F)C[C@H]1C(=O)N[C@H]1CCC[C@@H](Nc2ncc(C#N)c(-c3c[nH]c4ccccc34)n2)C1 [compound 396]
Marked response: > 7.00

Exam item: Same thing, different compound: CCc1cnc(N[C@@H]2CCC[C@](C)(NCc3ccc(NC(=O)/C=C/CN(C)C)cn3)C2)nc1-c1n[nH]c2ccccc12 [Compound 413]
Marked response: > 7.00

Exam item: Same thing, different compound: CN(C)C/C=C/C(=O)N1CC(F)(F)C[C@H]1C(=O)N[C@H]1CCC[C@@H](Nc2ncc(Cl)c(-c3n[nH]c4ccccc34)n2)C1 [compound 404]
Marked response: > 7.00

Exam item: Same thing, different compound: C=CC(=O)N1CC(F)(F)C[C@H]1C(=O)N[C@H]1CCC[C@@H](Nc2ncc(C#N)c(-c3c[nH]c4ccccc34)n2)C1 [compound 392]
Marked response: > 7.00

Exam item: Same thing, different compound: CN(C)C/C=C/C(=O)N1CCC(C(=O)N2CC[C@@H](Nc3ncc(Cl)c(-c4c[nH]c5ccccc45)n3)C2)CC1 [Compound 213]
Marked response: > 7.00

Exam item: Same thing, different compound: C=CC(=O)N1CCN([C@]23CCC[C@](Nc4ncc(Cl)c(-c5c[nH]c6ccccc56)n4)(CC2)C3)CC1 [Compound 408]
Marked response: > 7.00

Exam item: Same thing, different compound: Cc1cnc(N[C@@H]2CCC[C@H](NC(=O)c3ccc(NC(=O)/C=C/CN(C)C)cn3)C2)nc1-c1c[nH]c2ccccc12 [Compound 265]
Marked response: > 7.00

Exam item: Same thing, different compound: CN(C)CC=CC(=O)N1CC(N(C)C2CCCC(Nc3ncc(Cl)c(-c4c[nH]c5ccccc45)n3)C2)C1 (centres unmarked) [Compound 231]
Marked response: > 7.00

Further cases:
Exam item: # get_value(readout='pIC50', item= C=CC(=O)N1CCC[C@@H](C(=O)N[C@H]2CCC[C@@H](Nc3ncc(Cl)c(-c4c[nH]c5ccccc45)n3)C2)C1 [Compound 174] )
Marked response: > 7.00

Exam item: Same thing, different compound: C=CC(=O)NC1CN(C2CCCC(Nc3ncc(Cl)c(-c4c[nH]c5ccccc45)n3)C2)C1 (mixture of isomers) [Compound 255]
Marked response: > 7.00

Exam item: Same thing, different compound: C=CC(=O)N1CCN([C@H]2CCC[C@@H](Nc3ncc(Cl)c(-c4cnc5ccccn45)n3)C2)CC1 [Compound 414]
Marked response: 6.00 to 7.00

Exam item: Same thing, different compound: C=CC(=O)N1CCC(C(=O)N[C@H]2CCC[C@@H](Nc3ncc(Cl)c(-c4c[nH]c5ccccc45)n3)C2)CC1 [Compound 118]
Marked response: > 7.00
